Provenance of the data: patent US20100184189A1

Target: AsnO D241N (Streptomyces coelicolor, UniProt Q9Z4Z5, D241N/M1S)
Sequence (Q9Z4Z5 other isoform, or with tags, fused parts or gaps D241N): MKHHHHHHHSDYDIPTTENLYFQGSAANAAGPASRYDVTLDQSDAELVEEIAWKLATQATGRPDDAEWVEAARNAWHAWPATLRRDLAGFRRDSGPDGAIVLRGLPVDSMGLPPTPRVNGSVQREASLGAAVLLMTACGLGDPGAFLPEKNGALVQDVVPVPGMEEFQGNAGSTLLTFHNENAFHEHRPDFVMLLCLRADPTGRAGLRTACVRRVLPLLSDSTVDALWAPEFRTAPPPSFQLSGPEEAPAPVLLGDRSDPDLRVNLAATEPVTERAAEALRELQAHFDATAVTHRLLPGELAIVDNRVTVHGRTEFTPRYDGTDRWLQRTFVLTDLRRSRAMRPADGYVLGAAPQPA
Assay: Substrate specificity of the mutated protein AsnO D241N, HPLC/MS
Format: biochemical
Set-up: made in house; host or cells: E. coli BL21 (DE3), pQTEV vector
Conditions: amino acid 1.5 mM, 16 h at 16° C., (NH4)2Fe(SO4)2 1 mM, α-ketoglutarate 4 mM, catalase, HEPES pH 7.5
Procedure: The specificity of AsnO D241N for the conversion of L-Asp in L-threo-3-hydroxyaspartate is examined by incubating this mutated protein during 16 h at 16° C. with the amino acids (1.5 mM) listed in Table 1, the cofactor (NH4)2Fe(SO4)2 (1 mM), the cosubstrate α-ketoglutarate (4 mM) and 20 μg catalase in […] of a 50 mM HEPES buffer (pH 7.5). The catalase is added in order to quench reactive oxygen species and to prevent hereby the autoxidation of the enzyme. […]
experimental-endpoint: hydroxylation

[[record]]
compound = "N[C@@H](Cc1ccccc1)C(=O)O"
subject_of_test = "AsnO D241N (Streptomyces coelicolor, UniProt Q9Z4Z5, D241N/M1S)"
observed = "no"

[[record]]
compound = "N[C@H](CC(=O)O)C(=O)O"
subject_of_test = "AsnO D241N (Streptomyces coelicolor, UniProt Q9Z4Z5, D241N/M1S)"
observed = "no"

[[record]]
compound = "NC(=O)C[C@H](N)C(=O)O"
subject_of_test = "AsnO D241N (Streptomyces coelicolor, UniProt Q9Z4Z5, D241N/M1S)"
observed = "no"

[[record]]
compound = "N[C@@H](CC(=O)O)C(=O)O [L-Asp, L-aspartate]"
subject_of_test = "AsnO D241N (Streptomyces coelicolor, UniProt Q9Z4Z5, D241N/M1S)"
observed = "yes"

[[record]]
compound = "N[C@@H](CCC(=O)O)C(=O)O [L-Glu, L-glutamate]"
subject_of_test = "AsnO D241N (Streptomyces coelicolor, UniProt Q9Z4Z5, D241N/M1S)"
observed = "no"

[[record]]
compound = "NC(=O)CC[C@H](N)C(=O)O"
subject_of_test = "AsnO D241N (Streptomyces coelicolor, UniProt Q9Z4Z5, D241N/M1S)"
observed = "no"

